- PROCEDURE DETAILS: Distribution coefficient, log D of the compound
- Format: physicochemical
- DETAILS: octanol/water
MEASUREMENT NAME: logD

Reference set (7 entries):
# CHEMICAL SMILES, MEASUREMENT NAME, ASSAY RESULT
records = [
    ("Cn1ncc(-c2ccc3c(c2)N(c2nc4c(s2)C(=O)NC(C)(C)C4)CCO3)c1N", "logD", 1.98),
    ("CC1(C)Cc2nc(N3CCOc4ccc(-c5ccc(N)nn5)cc43)sc2C(=O)N1", "logD", 1.94),
    ("Cc1nn(C)cc1-c1ccc2c(c1)N(c1nc3c(s1)C(=O)NC(C)(C)C3)CCO2", "logD", 3),
    ("Cc1cc(C)c(Nc2ccc3c(c2)N(c2nc4c(s2)C(=O)NC(C)(C)C4)CCO3)nn1", "logD", 1.97),
    ("Cc1nn(C)c(C)c1-c1ccc2c(c1)N(c1nc3c(s1)C(=O)NC(C)(C)C3)CCO2", "logD", 3.23),
    ("CN1CCN(c2ccc(Nc3ccc4c(c3)N(c3nc5c(s3)C(=O)NC(C)(C)C5)CCO4)nn2)CC1", "logD", 1.76),
    ("CC1(C)Cc2nc(N3CCOc4ccc(-c5cn[nH]c5)cc43)sc2C(=O)N1", "logD", 2.68),
]

[I] Cc1ccc(Nc2ccc3c(c2)N(c2nc4c(s2)C(=O)NC(C)(C)C4)CCO3)nn1
[II] CC1(C)Cc2nc(N3CCOc4ccc(-c5cnn(Cc6ccccc6)c5)cc43)sc2C(=O)N1
Q) Given I and given II , which shows the smaller recorded logD? Give the label of your selection.
A) I
(I: 2.39, II: 3.91)

----------
- PROCEDURE DETAILS: AUC in Han/Wistar rat at 3 mg/kg, po
- Assay type: ADME, organism-based
- Design: dose 3 mg/kg, route oral
- DETAILS: plasma
MEASUREMENT NAME: AUC (ng·h/mL)

Study these solved cases before continuing.
# MOLECULE, UNIT LABEL, AUC
rows = [
    ("CC1(C)Cc2nc(N3CCOc4ccc(-c5cnn(Cc6ccccc6)c5)cc43)sc2C(=O)N1", "ng·h/mL", 455),
    ("Cc1ccc(Nc2ccc3c(c2)N(c2nc4c(s2)C(=O)NC(C)(C)C4)CCO3)nn1", "ng·h/mL", 345),
    ("CCn1nc(C)c(-c2ccc3c(c2)N(c2nc4c(s2)C(=O)NC(C)(C)C4)CCO3)c1C", "ng·h/mL", 591),
]

[P] CC(C)(O)Cn1cc(-c2ccc3c(c2)N(c2nc4c(s2)C(=O)NC(C)(C)C4)CCO3)cn1
[Q] CC1(C)Cc2nc(N3CCOc4ccc(-c5ccc(N)nn5)cc43)sc2C(=O)N1
[R] COCC(O)Cn1cc(-c2ccc3c(c2)N(c2nc4c(s2)C(=O)NC(C)(C)C4)CCO3)cn1 (configuration not stated)
Q) Order the records by AUC, with each subsequent value no larger than the one before. Give your ranking as a list of the labels in the requested order.
A) P, R, Q

----------
- PROCEDURE DETAILS: Distribution coefficient, log D of the compound
- Assay type: physicochemical
- DETAILS: octanol/water
MEASUREMENT NAME: logD

The examples below pair each entry with its known result.
# MOLECULE, MEASUREMENT NAME, ASSAY RESULT
rows = [
    ("CC(C)(O)Cn1cc(-c2ccc3c(c2)N(c2nc4c(s2)C(=O)NC(C)(C)C4)CCO3)cn1", "logD", 2.74),
    ("COCC(O)Cn1cc(-c2ccc3c(c2)N(c2nc4c(s2)C(=O)NC(C)(C)C4)CCO3)cn1 (centres undefined)", "logD", 2.19),
    ("Cc1ccc(-c2ccc3c(c2)N(c2nc4c(s2)C(=O)NC(C)(C)C4)CCO3)nn1", "logD", 2.32),
]

[a] CC1(C)Cc2nc(N3CCOc4ccc(-c5ccc(N6CCNCC6)nn5)cc43)sc2C(=O)N1
[b] CC1(C)Cc2nc(N3CCOc4ccc(Nc5ccc(N6CCNCC6)nn5)cc43)sc2C(=O)N1
[c] CC1(C)Cc2nc(N3CCOc4ccc(Nc5ccc(-c6ccccc6)nn5)cc43)sc2C(=O)N1
[d] CC1(C)Cc2nc(N3CCOc4ccc(-c5cnn(CCN)c5)cc43)sc2C(=O)N1
Q) Ordering: ascending logD. Returns: the labels listed in the requested order.
A) b, d, a, c
(b: 0.6, d: 1.16, a: 2.45, c: 3.72)
